// values below are reported remaining at 0.5 h, 1 µM
experiment: Metabolic stability in human liver microsomes assessed as compound remaining at 1 uM after 30 mins by LC/MS/MS analysis in presence of NADPH generating system; type: ADME; settings: read-out: Stability
Numbers only here, please. The scale is %.

In [3]: df
Out[3]:
                      smiles_representation  measurement_units  reading
0  COc1ccc(-c2cc(CNC(=O)NC34CC5CC(C)(CC(C)(C5)C3)C4)no2)cc1                  %      0.4
1  CC12CC3CC(C)(C1)CC(NC(=O)NCc1cc(-c4ccco4)on1)(C3)C2                  %      0.3
2  O=C(NCc1cc(-c2cccc(F)c2)no1)NCC12CC3CC(CC(C3)C1)C2                  %      0.3
3  O=C(NCc1cc(-c2ccco2)on1)NCC12CC3CC(CC(C3)C1)C2                  %      0.4

-- ask // query remaining at 0.5 h, 1 µM value for entry Cc1cc(CNC(=O)NC23CC4CC(C)(CC(C)(C4)C2)C3)on1
-- reply 0.1
